Data origin, for the record: patent US20240209076A1

# target: recombinant human IL-6 (human, UniProt P05231 30-212)
# Sequence (P05231 30-212 limits assumed): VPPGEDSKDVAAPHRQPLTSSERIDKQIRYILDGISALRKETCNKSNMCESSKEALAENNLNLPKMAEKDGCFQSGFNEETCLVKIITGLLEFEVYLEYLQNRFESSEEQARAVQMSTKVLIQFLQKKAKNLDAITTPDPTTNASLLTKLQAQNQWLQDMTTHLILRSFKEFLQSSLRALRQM
# testSummary: SPR, IL-6 on CM5 chip, Fab lysate, 25 C

binder	koff
anti-IL-6 Fab, light chain M88V (Fab, V domains shown, see m39) VH: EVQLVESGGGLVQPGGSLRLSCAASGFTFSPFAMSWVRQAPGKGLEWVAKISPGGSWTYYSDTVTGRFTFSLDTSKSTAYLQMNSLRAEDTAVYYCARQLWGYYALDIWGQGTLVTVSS VL: DIQLTQSPSSLSASVGDRVTITCSASISVSYMYWYQQKPGKAPKLLIYDMSNLASGVPSRFSGSGSGTDFTLTISSLQPEDFATYYCVQWSGYPYTFGQGTKVEIK	0.00495 s⁻¹
anti-IL-6 Fab, light chain S55R (Fab, V domains shown, see m39) VH: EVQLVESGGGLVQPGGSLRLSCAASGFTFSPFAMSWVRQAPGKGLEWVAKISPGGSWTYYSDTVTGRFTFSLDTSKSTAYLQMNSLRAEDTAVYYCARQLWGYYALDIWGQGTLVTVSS VL: DIQLTQSPSSLSASVGDRVTITCSASISVSYMYWYQQKPGKAPKLLIYDMSNLARGVPSRFSGSGSGTDFTLTISSLQPEDFATYYCMQWSGYPYTFGQGTKVEIK	0.00526 s⁻¹
anti-IL-6 Fab, light chain Y31F (Fab, V domains shown, see m39) VH: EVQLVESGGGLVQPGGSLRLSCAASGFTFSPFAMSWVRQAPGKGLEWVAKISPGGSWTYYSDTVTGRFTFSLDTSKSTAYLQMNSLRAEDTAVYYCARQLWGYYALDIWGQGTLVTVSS VL: DIQLTQSPSSLSASVGDRVTITCSASISVSFMYWYQQKPGKAPKLLIYDMSNLASGVPSRFSGSGSGTDFTLTISSLQPEDFATYYCMQWSGYPYTFGQGTKVEIK	0.0051 s⁻¹
anti-IL-6 Fab, light chain V29L (Fab, V domains shown, see m39) VH: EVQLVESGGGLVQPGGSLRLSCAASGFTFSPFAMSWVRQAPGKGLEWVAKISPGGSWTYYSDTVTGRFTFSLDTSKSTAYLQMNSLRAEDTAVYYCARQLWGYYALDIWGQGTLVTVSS VL: DIQLTQSPSSLSASVGDRVTITCSASISLSYMYWYQQKPGKAPKLLIYDMSNLASGVPSRFSGSGSGTDFTLTISSLQPEDFATYYCMQWSGYPYTFGQGTKVEIK	0.00543 s⁻¹
anti-IL-6 Fab, light chain M32L (Fab, V domains shown, see m39) VH: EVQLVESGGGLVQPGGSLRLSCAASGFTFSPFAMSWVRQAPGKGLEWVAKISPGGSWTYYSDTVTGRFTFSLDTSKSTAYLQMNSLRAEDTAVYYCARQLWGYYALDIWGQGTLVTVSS VL: DIQLTQSPSSLSASVGDRVTITCSASISVSYLYWYQQKPGKAPKLLIYDMSNLASGVPSRFSGSGSGTDFTLTISSLQPEDFATYYCMQWSGYPYTFGQGTKVEIK	0.00492 s⁻¹
anti-IL-6 Fab, heavy chain S30W (Fab, V domains shown, see m39) VH: EVQLVESGGGLVQPGGSLRLSCAASGFTFWPFAMSWVRQAPGKGLEWVAKISPGGSWTYYSDTVTGRFTFSLDTSKSTAYLQMNSLRAEDTAVYYCARQLWGYYALDIWGQGTLVTVSS VL: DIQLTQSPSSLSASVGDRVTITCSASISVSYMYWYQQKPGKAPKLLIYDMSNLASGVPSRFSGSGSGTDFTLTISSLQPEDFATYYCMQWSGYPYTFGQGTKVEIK	0.00369 s⁻¹
anti-IL-6 Fab, light chain A25S (Fab, V domains shown, see m39) VH: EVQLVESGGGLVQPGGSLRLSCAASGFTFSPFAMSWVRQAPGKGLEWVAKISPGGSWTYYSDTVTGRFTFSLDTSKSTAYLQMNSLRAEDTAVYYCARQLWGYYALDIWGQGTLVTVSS VL: DIQLTQSPSSLSASVGDRVTITCSSSISVSYMYWYQQKPGKAPKLLIYDMSNLASGVPSRFSGSGSGTDFTLTISSLQPEDFATYYCMQWSGYPYTFGQGTKVEIK	0.0048 s⁻¹
anti-IL-6 Fab, heavy chain Y103S (Fab, V domains shown) VH: EVQLVESGGGLVQPGGSLRLSCAASGFTFSPFAMSWVRQAPGKGLEWVAKISPGGSWTYYSDTVTGRFTFSLDTSKSTAYLQMNSLRAEDTAVYYCARQLWGSYALDIWGQGTLVTVSS VL: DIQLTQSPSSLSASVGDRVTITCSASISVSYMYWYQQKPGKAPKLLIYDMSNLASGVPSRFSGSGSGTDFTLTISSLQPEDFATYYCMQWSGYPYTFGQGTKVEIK	0.00502 s⁻¹
anti-IL-6 Fab, light chain S24I (Fab, V domains shown, see m39) VH: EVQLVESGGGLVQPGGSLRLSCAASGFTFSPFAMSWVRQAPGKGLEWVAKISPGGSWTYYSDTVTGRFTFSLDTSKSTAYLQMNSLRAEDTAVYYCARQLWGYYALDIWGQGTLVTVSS VL: DIQLTQSPSSLSASVGDRVTITCIASISVSYMYWYQQKPGKAPKLLIYDMSNLASGVPSRFSGSGSGTDFTLTISSLQPEDFATYYCMQWSGYPYTFGQGTKVEIK	0.00412 s⁻¹
anti-IL-6 Fab, light chain S55W (Fab, V domains shown, see m39) VH: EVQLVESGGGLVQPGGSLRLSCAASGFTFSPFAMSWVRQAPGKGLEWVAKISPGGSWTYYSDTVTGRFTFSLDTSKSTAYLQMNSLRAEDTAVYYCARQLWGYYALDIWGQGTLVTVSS VL: DIQLTQSPSSLSASVGDRVTITCSASISVSYMYWYQQKPGKAPKLLIYDMSNLAWGVPSRFSGSGSGTDFTLTISSLQPEDFATYYCMQWSGYPYTFGQGTKVEIK	0.0051 s⁻¹
